Listed below: GI50 values for each entry.
- System: UO-31
- protocol notes: NCI tumour cell line growth inhibition, 48 h
The source made the active and inactive calls. Rule as the data show it: active = GI50 up to about 1.1 µM and inactive = higher.

Look over these answered cases.
>  <compound>
CCOC(=O)c1[nH]c2cc(OC)c(OC)cc2c1CN(C)C

>  <result>
> 100 µM (inactive)

$$$$
>  <compound>
O=S(=O)(N/N=C/c1ccc(Cl)cc1Cl)c1ccccc1

>  <result>
> 100 µM (inactive)

$$$$
>  <compound>
O=C1CCCN1CCC/N=c1/cc2n(-c3ccc(Cl)cc3)c3ccccc3nc-2cc1Nc1ccc(Cl)cc1

>  <result>
6.73 µM (inactive)

$$$$
>  <compound>
CSC(=O)/C=C1\SS/C(=C\C(=O)SC)S1

>  <result>
2.43 µM (inactive)

$$$$
>  <compound>
O=c1c(C(c2ccc(OCc3ccccc3)cc2)c2c(O)oc3ccccc3c2=O)c(O)oc2ccccc12

>  <result>
19 µM (inactive)

$$$$

[Q] Sample CCOC(=O)COc1ccc2c(C)cc(=O)oc2c1 — what was its GI50?
[A] > 100 µM (inactive)

[Q] Sample CN(O)C(=O)CCC(NC(=O)CCC(N)C(=O)O)C(=O)NCC(=O)O (centres undefined) — what was its GI50?
[A] > 100 µM (inactive)

[Q] Sample C/C(=N\NC(=S)NCCNC(=S)N/N=C(\C)c1ccccn1)c1ccccn1 — what was its GI50?
[A] 1.43 µM (inactive)

[Q] Sample CCOC(=O)C1(C#N)C(=O)c2cc[n+](CC[n+]3ccc4c(c3)C(=O)C(C#N)(C(=O)OCC)C4=O)cc2C1=O (centres undefined) — what was its GI50?
[A] > 100 µM (inactive)
